TARGET ENTITY: CDK12 (aa686-1082)/Cyclin K complex (Homo sapiens, UniProt Q9NYV4)
Construct: CDK12 (aa686-1082)/Cyclin K complex
Sequence (Q9NYV4 686-1082, species assumed): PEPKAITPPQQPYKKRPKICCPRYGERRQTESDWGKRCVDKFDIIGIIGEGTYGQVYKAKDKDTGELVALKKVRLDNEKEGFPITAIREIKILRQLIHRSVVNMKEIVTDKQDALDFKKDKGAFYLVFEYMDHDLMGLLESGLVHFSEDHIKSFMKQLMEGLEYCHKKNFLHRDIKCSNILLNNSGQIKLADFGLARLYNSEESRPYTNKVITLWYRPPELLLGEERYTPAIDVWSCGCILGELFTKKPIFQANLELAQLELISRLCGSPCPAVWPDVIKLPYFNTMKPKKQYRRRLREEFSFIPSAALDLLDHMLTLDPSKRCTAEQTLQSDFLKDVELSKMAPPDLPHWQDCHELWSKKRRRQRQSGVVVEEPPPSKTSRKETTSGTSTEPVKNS
Sequence (O75909 whole entry partner, species assumed, the tested form may be a part): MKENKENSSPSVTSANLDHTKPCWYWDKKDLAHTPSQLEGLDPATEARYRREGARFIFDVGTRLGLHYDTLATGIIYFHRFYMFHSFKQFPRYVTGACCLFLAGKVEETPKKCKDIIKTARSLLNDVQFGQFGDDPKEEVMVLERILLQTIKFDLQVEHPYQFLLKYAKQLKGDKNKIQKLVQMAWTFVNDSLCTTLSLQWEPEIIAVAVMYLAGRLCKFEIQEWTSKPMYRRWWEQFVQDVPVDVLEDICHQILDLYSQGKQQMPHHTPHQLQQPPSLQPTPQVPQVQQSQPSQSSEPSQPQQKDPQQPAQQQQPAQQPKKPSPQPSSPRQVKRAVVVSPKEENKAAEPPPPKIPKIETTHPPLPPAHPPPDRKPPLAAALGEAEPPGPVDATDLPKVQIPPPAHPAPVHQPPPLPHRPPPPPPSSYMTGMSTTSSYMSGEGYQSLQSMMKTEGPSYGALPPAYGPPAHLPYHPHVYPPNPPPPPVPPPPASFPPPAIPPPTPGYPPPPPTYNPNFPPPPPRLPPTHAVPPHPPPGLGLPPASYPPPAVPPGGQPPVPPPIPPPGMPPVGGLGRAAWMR
PROTOCOL SUMMARY: CDK12 inhibition assay (Caliper/LabChip EZ Reader kinase assay)
Type: biochemical
CONDITION LABEL: Table 1; CDK12 (aa686-1082)/Cyclin K 50 nM, ATP 2 mM, 3 hr at 27° C.; listed as 117
Description: Compounds of the invention were assayed for inhibition of CDK7, CDK9, CDK12, and CDK2 activity at Biortus Biosciences (Jiangyin, Jiangsu Province, P.R. of China) using kinase assays for each CDK developed with a Caliper/LabChip EZ Reader (Perkin Elmer, Waltham, MA). […]
PARAMETER MEASURED: IC50

[
  {
    "COMPOUND SMILES": "O=S1(=O)CCn2cc(-c3nc(N[C@H]4CCCNC4)ncc3C(F)(F)F)c3cccc1c32",
    "VALUE": "200 to 5000 nM"
  }
]
